# TESTED ON: human GCGR (Homo sapiens (Human), UniProt P47871)
# Sequence (P47871 26-477): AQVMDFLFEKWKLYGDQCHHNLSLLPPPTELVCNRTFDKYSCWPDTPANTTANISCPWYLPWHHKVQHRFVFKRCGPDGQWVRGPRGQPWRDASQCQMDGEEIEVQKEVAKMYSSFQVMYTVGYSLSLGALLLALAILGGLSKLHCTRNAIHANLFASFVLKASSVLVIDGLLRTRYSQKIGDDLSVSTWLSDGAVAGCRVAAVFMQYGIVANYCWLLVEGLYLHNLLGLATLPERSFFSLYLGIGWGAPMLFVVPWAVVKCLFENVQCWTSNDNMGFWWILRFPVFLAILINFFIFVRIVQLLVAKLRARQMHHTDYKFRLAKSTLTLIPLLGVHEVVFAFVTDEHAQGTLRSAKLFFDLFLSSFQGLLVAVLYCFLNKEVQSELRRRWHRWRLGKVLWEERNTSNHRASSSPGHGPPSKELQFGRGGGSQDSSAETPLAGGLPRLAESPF
# PROTOCOL SUMMARY: Cellular functional assay, cAMP readout (glucagon-stimulated cAMP in HEK293 cells expressing human GCGR)
# Type: cell-based
# CONDITIONS USED: hGluc-1 HEK cells, LANCE TR-FRET, IC50 converted to Ki, average if tested more than once
pKi: −log10 of the molar value.
VALUE KIND: pKi

Some compounds with known pKi results, for comparison:
test_smiles=O=C(O)CCNC(=O)c1ccc(-c2cc(C(F)(F)F)ccc2CNc2ccc(-c3ccc(Cl)cc3C(F)(F)F)cc2)cn1 value_reported=6.66
test_smiles=O=C(O)CCNC(=O)c1ccc(-c2cc(C(F)(F)F)ccc2CNc2ccc(-c3ccc(C(F)(F)F)cc3)cc2)cn1 value_reported=7.21
test_smiles=O=C(O)CCNC(=O)c1ccc(-c2cc(Cl)ccc2CNc2ccc(-c3ccc(F)c(F)c3)cc2)cn1 value_reported=6.60

1. Cc1cc(-c2ccc(NCc3cc(F)c(F)cc3-c3ccc(C(=O)NCCC(=O)O)nc3)cc2C#N)ccc1F
2. N#Cc1cc(NCc2cc(F)c(F)cc2-c2ccc(C(=O)NCCC(=O)O)nc2)ccc1-c1ccc(Cl)cc1F
**Q:** Return label of the item with the larger pKi. Candidates: 1 , 2 . Answer format: the label of the selected item.
**A:** 2
(2: 6.74, 1: 6.30)

----------
# TESTED ON: UniProt:P47871
# PROTOCOL SUMMARY: Cellular functional assay, cAMP readout (glucagon-stimulated cAMP in HEK293 cells expressing human GCGR)
# Format: cell-based
# CONDITIONS USED: hGluc-1 HEK cells, LANCE TR-FRET, IC50 converted to Ki, average if tested more than once
pKi: −log10 of the molar value.
VALUE KIND: pKi

a. Cc1cc(NCc2c(-c3ccc(C(=O)NCCC(=O)O)nc3)cc(C(F)(F)F)cc2C(F)(F)F)ccc1-c1ccc(Cl)cc1 [Compound 86]
b. O=C(O)CCNC(=O)c1ccc(-c2cc(C(F)(F)F)ccc2CNc2ccc(-c3cccc(F)c3)cc2)cn1 [Compound 62]
**Q:** Return label of the item with the larger pKi. Candidates: a , b . Answer format: the label of the selected item.
**A:** a

A. O=C(O)CCNC(=O)c1ccc(-c2cc(Cl)ccc2C(=O)Nc2ccc(-c3ccc(Cl)cc3)cc2)cn1 [Compound 16]
B. O=C(O)CCNC(=O)c1ccc(-c2cc(Cl)ccc2CNc2ccc(-c3ccc(F)cc3)c(F)c2)cn1 [Compound 88]
C. O=C(O)CCNC(=O)c1ccc(-c2cc(F)c(F)cc2CNc2ccc(-c3ccc(Cl)cc3Cl)cc2)cn1 [Compound 118]
D. O=C(O)CCNC(=O)c1ccc(-c2cc(Cl)ccc2CNc2ccc(-c3ccc(F)c(C(F)(F)F)c3)c(Cl)c2)cn1 [Compound 144]
**Q:** I would appreciate it if you could sort these 4 compounds by pKi, starting from the smallest number. Reply: labels, ordered per the request.
**A:** B, C, A, D

A. O=C(O)CCNC(=O)c1ccc(-c2cc(Cl)ccc2CNc2ccc(-c3ccc(Cl)cc3)cc2F)cn1 [Compound 12]
B. O=C(O)CCNC(=O)c1ccc(-c2cc(C(F)(F)F)cc(O)c2CNc2ccc(-c3ccc(Cl)cc3)c(Cl)c2)cn1 [Compound 164]
**Q:** Given the listed items, does A or B have the lesser reported pKi? Answer format: the label of the selected item.
**A:** A

----------
# TESTED ON: human GCGR (Homo sapiens (Human), UniProt P47871)
# PROTOCOL SUMMARY: Cellular functional assay, cAMP readout (glucagon-stimulated cAMP in HEK293 cells expressing human GCGR)
# Type: cell-based
# CONDITIONS USED: hGluc-1 HEK cells, LANCE TR-FRET, IC50 converted to Ki, average if tested more than once
VALUE KIND: Ki (nM)

1. O=C(O)CCNC(=O)c1ccc(-c2cc(C(F)(F)F)ccc2CNc2ccc(-c3ccc(C(F)(F)F)c(F)c3)c(Cl)c2)cn1 [Compound 39]
2. O=C(O)CCNC(=O)c1ccc(-c2cc(C(F)(F)F)ccc2CNc2ccc(-c3ccc(F)c(C(F)(F)F)c3)c(C(F)(F)F)c2)cn1 [Compound 121]
3. O=C(O)CCNC(=O)c1ccc(-c2cc(F)c(F)cc2C(=O)Nc2ccc(-c3ccc(Cl)cc3)cc2)cn1 [Compound 97]
**Q:** // sort entries: Ki, high to low Reply: labels, ordered per the request.
**A:** 3, 2, 1
(3: 225 nM, 2: 100 nM, 1: 47.4 nM)

----------
# TESTED ON: UniProt P47871
# PROTOCOL SUMMARY: Cellular functional assay, cAMP readout (glucagon-stimulated cAMP in HEK293 cells expressing human GCGR)
# Assay type: cell-based
# CONDITIONS USED: hGluc-1 HEK cells, LANCE TR-FRET, IC50 converted to Ki, average if tested more than once
VALUE KIND: Ki (nM)

Some molecules with known Ki results, for comparison:
test_smiles=Cc1cc(C(F)(F)F)ccc1-c1ccc(NCc2c(-c3ccc(C(=O)NCCC(=O)O)nc3)cc(C(F)(F)F)cc2C(F)(F)F)cc1 tested_on="UniProt P47871" value_reported=14.1
test_smiles=N#Cc1cccc(CNc2ccc(-c3ccc(Cl)cc3)cc2)c1-c1ccc(C(=O)NCCC(=O)O)nc1 tested_on="UniProt P47871" value_reported=1850

1. Cc1cc(F)ccc1-c1ccc(NCc2ccc(Cl)cc2-c2ccc(C(=O)NCCC(=O)O)nc2)cc1
2. O=C(O)CCNC(=O)c1ccc(-c2cc(Cl)ccc2CNc2ccc(-c3ccc(Cl)cc3Cl)c(Cl)c2)cn1
**Q:** Given the listed items, does 1 or 2 have the lesser reported Ki? Answer format: the label of the selected item.
**A:** 2
(2: 34.1 nM, 1: 113 nM)

----------
# TESTED ON: human GCGR (Homo sapiens (Human))
# PROTOCOL SUMMARY: Cellular functional assay, cAMP readout (glucagon-stimulated cAMP in HEK293 cells expressing human GCGR)
# Type: cell-based
# CONDITIONS USED: hGluc-1 HEK cells, LANCE TR-FRET, IC50 converted to Ki, average if tested more than once
pKi: −log10 of the molar value.
VALUE KIND: pKi

test_smiles=O=C(O)CCNC(=O)c1ccc(-c2ccc(Cl)cc2CNc2ccc(-c3ccc(Cl)cc3Cl)cc2)cn1 value_reported=6.74

1. O=C(O)CCNC(=O)c1ccc(-c2cc(C(F)(F)F)ccc2CNc2ccc(-c3ccc(C(F)(F)F)cc3Cl)c(Cl)c2)cn1
2. O=C(O)CCNC(=O)c1ccc(-c2cc(Cl)ccc2CNc2ccc(-c3ccc(F)cc3C(F)(F)F)c(Cl)c2)cn1
3. O=C(O)CCNC(=O)c1ccc(-c2cc(Cl)ccc2CNc2ccc(-c3ccc(C(F)(F)F)cc3Cl)cc2)cn1
4. O=C(O)CCNC(=O)c1ccc(-c2cc(Cl)ccc2CNc2ccc(-c3ccc(F)cc3Cl)c(Cl)c2)cn1
**Q:** Arrange these compounds by their pKi, starting with the largest number. Reply: labels, ordered per the request.
**A:** 1, 3, 4, 2
(1: 7.70, 3: 7.22, 4: 6.92, 2: 6.65)

A. Cc1cc(Cl)ccc1-c1ccc(NC(=O)c2ccc(Cl)cc2-c2ccc(C(=O)NCCC(=O)O)nc2)cc1
B. O=C(O)CCNC(=O)c1ccc(-c2cc(F)c(F)cc2CNc2ccc(-c3ccc(Cl)cc3)cc2)cn1
C. Cc1cc(Cl)ccc1-c1ccc(NCc2c(-c3ccc(C(=O)NCCC(=O)O)nc3)cc(C(F)(F)F)cc2C2CC2)cc1Cl
D. N#Cc1cc(NCc2ccc(Cl)cc2-c2ccc(C(=O)NCCC(=O)O)nc2)ccc1-c1ccc(Cl)cc1Cl
**Q:** Arrange these compounds by their pKi, starting with the largest number. Reply: labels, ordered per the request.
**A:** C, A, D, B
(C: 8.20, A: 7.55, D: 7.18, B: 6.80)

P. O=C(O)CCNC(=O)c1ccc(-c2cc(C(F)(F)F)ccc2CNc2ccc(-c3ccc(F)c(C(F)(F)F)c3)c(Cl)c2)cn1
Q. Cc1cc(-c2ccc(NCc3ccc(Cl)cc3-c3ccc(C(=O)NCCC(=O)O)nc3)cc2Cl)ccc1F
R. O=C(O)CCNC(=O)c1ccc(-c2cc(F)c(F)cc2CNc2ccc(-c3ccc(F)c(C(F)(F)F)c3)c(Cl)c2)cn1
**Q:** Arrange these compounds by their pKi, starting with the largest number. Reply: labels, ordered per the request.
**A:** P, R, Q
(P: 7.71, R: 7.38, Q: 6.92)

a. O=C(O)CCNC(=O)c1ccc(-c2cc(F)c(F)cc2C(=O)Nc2ccc(-c3ccc(C(F)(F)F)cc3)cc2)cn1
b. Cc1cc(Cl)ccc1-c1ccc(NCc2c(-c3ccc(C(=O)NCCC(=O)O)nc3)cc(C(F)(F)F)cc2C(F)(F)F)cc1
**Q:** Given the listed items, does a or b have the lesser reported pKi? Answer format: the label of the selected item.
**A:** a

Reference for the values: patent US8748624B2
